assay.overview: Selectivity index, CTD50 for MDCK cells to EC50 for influenza A virus (A/California/07/09(H1N1)) pdm09 infected in MDCK cells
Format: toxicity, cell-based
measurement.setup: dog; read-out: Selectivity Index
Would you kindly list selectivity ratio for each of these compounds?
Give a plain numeric answer without units written out.

Recorded selectivity ratio of CC[C@H](C)[C@H](NC(=O)[C@H]1O[C@@H](O[C@H]2[C@H](O[C@H]3CC[C@]4(C)[C@H]5C(=O)C=C6[C@@H]7C[C@@](C)(C(=O)N[C@H](C(=O)OC)[C@@H](C)CC)CC[C@]7(C)CC[C@@]6(C)[C@]5(C)CC[C@H]4C3(C)C)O[C@H](C(=O)N[C@H](C(=O)OC)[C@@H](C)CC)[C@@H](O)[C@@H]2O)[C@H](O)[C@@H](O)[C@@H]1O)C(=O)OC , please.
6

Queued: CC1(C)[C@@H](O[C@@H]2O[C@H](C(=O)N[C@@H](CCCCNC(=O)OCc3ccccc3)C(=O)O)[C@@H](O)[C@H](O)[C@H]2O[C@@H]2O[C@H](C(=O)N[C@@H](CCCCNC(=O)OCc3ccccc3)C(=O)O)[C@@H](O)[C@H](O)[C@H]2O)CC[C@]2(C)[C@H]3C(=O)C=C4[C@@H]5C[C@@](C)(C(=O)O)CC[C@]5(C)CC[C@@]4(C)[C@]3(C)CC[C@@H]12
3

Queued: CC(N)C12CC3CC(CC(C3)C1)C2 (stereo not given)
5

Queued: CC1(C)[C@@H](O[C@@H]2O[C@H](C(=O)N[C@@H]3O[C@H](CO)[C@@H](O)[C@H](O)[C@H]3O)[C@@H](O)[C@H](O)[C@H]2O[C@@H]2O[C@H](C(=O)N[C@@H]3O[C@H](CO)[C@@H](O)[C@H](O)[C@H]3O)[C@@H](O)[C@H](O)[C@H]2O)CC[C@]2(C)[C@H]3C(=O)C=C4[C@@H]5C[C@@](C)(C(=O)O)CC[C@]5(C)CC[C@@]4(C)[C@]3(C)CC[C@@H]12
36

Queued: COC(=O)[C@H](Cc1c[nH]cn1)NC(=O)[C@H]1O[C@@H](O[C@H]2[C@H](O[C@H]3CC[C@]4(C)[C@H]5C(=O)C=C6[C@@H]7C[C@@](C)(C(=O)O)CC[C@]7(C)CC[C@@]6(C)[C@]5(C)CC[C@H]4C3(C)C)O[C@H](C(=O)N[C@@H](Cc3c[nH]cn3)C(=O)OC)[C@@H](O)[C@@H]2O)[C@H](O)[C@@H](O)[C@@H]1O
15

====

assay.overview: Selectivity index, CTD50 for MDCK cells to EC50 for influenza A virus (A/California/07/09(H1N1)) pdm09 infected in MDCK cells
Format: toxicity, cell-based
measurement.setup: dog; read-out: Selectivity Index
property: selectivity ratio

Recorded selectivity ratio of COC(=O)C[C@H](NC(=O)[C@H]1O[C@@H](O[C@H]2[C@H](O[C@H]3CC[C@]4(C)[C@H]5C(=O)C=C6[C@H]7C[C@@](C)(C(=O)O)CC[C@]7(C)CC[C@@]6(C)[C@]5(C)CC[C@H]4C3(C)C)O[C@H](C(=O)N[C@@H](CC(=O)OC)C(=O)O)[C@@H](O)[C@@H]2O)[C@H](O)[C@@H](O)[C@@H]1O)C(=O)O , please.
12

Queued: COC(=O)[C@H](Cc1ccccc1)NC(=O)[C@H]1O[C@@H](O[C@H]2[C@H](O[C@H]3CC[C@]4(C)[C@H]5C(=O)C=C6[C@@H]7C[C@@](C)(C(=O)O)CC[C@]7(C)CC[C@@]6(C)[C@]5(C)CC[C@H]4C3(C)C)O[C@H](C(=O)N[C@@H](Cc3ccccc3)C(=O)OC)[C@@H](O)[C@@H]2O)[C@H](O)[C@@H](O)[C@@H]1O
61

Queued: COC(=O)[C@H](Cc1ccc(O)cc1)NC(=O)[C@H]1O[C@@H](O[C@H]2[C@H](O[C@H]3CC[C@]4(C)[C@H]5C(=O)C=C6[C@@H]7C[C@@](C)(C(=O)N[C@@H](Cc8ccc(O)cc8)C(=O)OC)CC[C@]7(C)CC[C@@]6(C)[C@]5(C)CC[C@H]4C3(C)C)O[C@H](C(=O)N[C@@H](Cc3ccc(O)cc3)C(=O)OC)[C@@H](O)[C@@H]2O)[C@H](O)[C@@H](O)[C@@H]1O
18

====

assay.overview: Selectivity index, CTD50 for MDCK cells to EC50 for influenza A virus (A/California/07/09(H1N1)) pdm09 infected in MDCK cells
Format: toxicity, cell-based
measurement.setup: dog; read-out: Selectivity Index
Classify: yes when selectivity ratio is strictly less than 5; no when selectivity ratio is not.

# check: selectivity ratio < 5 for CC1(C)[C@@H](O[C@@H]2O[C@H](C(=O)O)[C@@H](O)[C@H](O)[C@H]2O[C@@H]2O[C@H](C(=O)O)[C@@H](O)[C@H](O)[C@H]2O)CC[C@]2(C)C3=CC=C4[C@@H]5C[C@@](C)(C(=O)O)CC[C@]5(C)CC[C@@]4(C)[C@]3(C)CC[C@@H]12
no

Queued: COC(=O)C[C@H](NC(=O)[C@H]1O[C@@H](O[C@H]2[C@H](O[C@H]3CC[C@]4(C)[C@H]5C(=O)C=C6[C@@H]7C[C@@](C)(C(=O)O)CC[C@]7(C)CC[C@@]6(C)[C@]5(C)CC[C@H]4C3(C)C)O[C@H](C(=O)N[C@@H](CC(=O)OC)C(=O)OC)[C@@H](O)[C@@H]2O)[C@H](O)[C@@H](O)[C@@H]1O)C(=O)OC
yes

Queued: COC(=O)C[C@H](NC(=O)[C@H]1O[C@@H](O[C@H]2[C@H](O[C@H]3CC[C@]4(C)[C@H]5C(=O)C=C6[C@H]7C[C@@](C)(C(=O)O)CC[C@]7(C)CC[C@@]6(C)[C@]5(C)CC[C@H]4C3(C)C)O[C@H](C(=O)N[C@@H](CC(=O)OC)C(=O)OC)[C@@H](O)[C@@H]2O)[C@H](O)[C@@H](O)[C@@H]1O)C(=O)OC
yes

Queued: COC(=O)[C@H](Cc1ccccc1)NC(=O)[C@H]1O[C@@H](O[C@H]2[C@H](O[C@H]3CC[C@]4(C)[C@H]5C(=O)C=C6[C@@H]7C[C@@](C)(C(=O)N[C@@H](Cc8ccccc8)C(=O)OC)CC[C@]7(C)CC[C@@]6(C)[C@]5(C)CC[C@H]4C3(C)C)O[C@H](C(=O)N[C@@H](Cc3ccccc3)C(=O)OC)[C@@H](O)[C@@H]2O)[C@H](O)[C@@H](O)[C@@H]1O
no

====

assay.overview: Selectivity index, CTD50 for MDCK cells to EC50 for influenza A virus (A/California/07/09(H1N1)) pdm09 infected in MDCK cells
Type: toxicity, cell-based
measurement.setup: dog; read-out: Selectivity Index
property: selectivity ratio

Recorded selectivity ratio of COC(=O)[C@H](Cc1ccc(O)cc1)NC(=O)[C@H]1O[C@@H](O[C@H]2[C@H](O[C@H]3CC[C@]4(C)[C@H]5C(=O)C=C6[C@@H]7C[C@@](C)(C(=O)O)CC[C@]7(C)CC[C@@]6(C)[C@]5(C)CC[C@H]4C3(C)C)O[C@H](C(=O)N[C@@H](Cc3ccc(O)cc3)C(=O)OC)[C@@H](O)[C@@H]2O)[C@H](O)[C@@H](O)[C@@H]1O , please.
38

Queued: CC1(C)[C@@H](O[C@@H]2O[C@H](C(=O)N[C@@H](CSCc3ccccc3)C(=O)O)[C@@H](O)[C@H](O)[C@H]2O[C@@H]2O[C@H](C(=O)N[C@@H](CSCc3ccccc3)C(=O)O)[C@@H](O)[C@H](O)[C@H]2O)CC[C@]2(C)[C@H]3C(=O)C=C4[C@@H]5C[C@@](C)(C(=O)O)CC[C@]5(C)CC[C@@]4(C)[C@]3(C)CC[C@@H]12
71
